These data points were gathered from PubChem BioAssay AID463074.

Tested on: HMLE_sh_eGFP viability, CellTiter-Glo luminescence, 72 h
ASSAY EXPLANATION: cytotoxicity in HMLE control line with eGFP shRNA, dose response, counter-screen for HMLE_sh_ECad selective toxicity project, cell-based, HMLE_sh_eGFP, luminescence (AID 463074);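 also: counterscreen control line to flag general toxicity for the HMLE_sh_ECad screen; potency for loss of viability as luminescence drops below DMSO wells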
VALUE KIND: AC50

Consider the following illustrative entries.
{"COMPOUND": "C/C(=N\\NC(=O)c1cccc(Cl)c1)C1C(=O)c2ccccc2C1=O", "ASSAY RESULT": "20.1 µM"}
{"COMPOUND": "O=C(NC(=S)NCCc1ccccc1)C1CCCCC1", "ASSAY RESULT": "18.4 µM"}
{"COMPOUND": "COc1cc(-c2noc(C)c2/C=C/c2ccc(OC(C)=O)cc2)cc(OC)c1OC", "ASSAY RESULT": "0.292 µM"}
{"COMPOUND": "COc1cc(/C=N/NC(=O)c2ccc(CN(C)S(=O)(=O)c3ccc(C)cc3)cc2)ccc1O", "ASSAY RESULT": "5.13 µM"}
{"COMPOUND": "CCCc1ccc(-c2cc(NC(=O)CSc3n[nH]c(N)n3)n(-c3ccccc3)n2)cc1", "ASSAY RESULT": "6.1 µM"}

Endpoint output: AC50 of `c1ccc(CN2CCC(Nc3nc(-c4ccccc4)nc4ccccc34)CC2)cc1` . Value?
6.67 µM

Param item: `Cc1cccc(-n2cc(CN(C)Cc3nccn3C)c(-c3cccc(F)c3)n2)c1`
15.5 µM

###

Test system: HMLE_sh_eGFP viability, CellTiter-Glo luminescence, 72 h
ASSAY EXPLANATION: cytotoxicity in HMLE control line with eGFP shRNA, dose response, counter-screen for HMLE_sh_ECad selective toxicity project, cell-based, HMLE_sh_eGFP, luminescence (AID 463074);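 active = AC50 no more than tenfold above the top dose tested, or full inhibition at every dose with a flat fit (cut at about 19 µM in these data); inconclusive = flat curve fit with inhibition between 30% and 70%, or poor fit; inactive = AC50 more than tenfold above the top dose tested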
Tick one outcome: active, inactive

Identify the outcome logged in this assay for the compound shown: `COc1ccc(NC(=O)c2c(N)no[n+]2[O-])cc1`
active

Param item: `Clc1ccc(-c2ccc(/C=N/Nc3cc(N4CCOCC4)nc(N4CCOCC4)n3)o2)cc1`
active

Param item: `CC1(C)Cc2ccccc2C(CSc2ccccc2C(=O)O)=N1`
active

Param item: `COc1ccc(CCn2c(C3CCCCC3)nc3c(c(=O)c4ccccc4n3C)c2=O)cc1`
active

Param item: CCc1ccc(-c2cc3c(=O)n(CC(=O)NCCN4CCCCC4C)nc(C)n3n2)cc1 (stereo not drawn)
active

Param item: `Cc1ccc(S[C@@H](CCN2CC[C@H](C(C)(C)C)CCC2=O)c2ccccc2)cc1`
active

Param item: `C/C(=N\Nc1cc(C(F)(F)F)ccc1Cl)c1ccccc1O`
active

Param item: `COc1ccc2c(c1)C(=O)[C@H](O)[C@@H](c1ccc(OC)c(Br)c1)O2`
active

Param item: `Cc1ccc(-c2csc3ncnc(-n4cnc5ccccc54)c23)cc1`
active

Param item: CC(C)CC(=O)NC(NC(=S)Nc1sc2c(c1C#N)CCCC2)C(Cl)(Cl)Cl (stereo not drawn)
active

Param item: `CC(C)(c1ccccc1)c1ccc(OCCN2CCCC2)cc1`
active

Param item: `CCOC(=O)C(=O)NNc1ccc(F)cc1`
active

###

Test system: HMLE_sh_eGFP viability, CellTiter-Glo luminescence, 72 h
ASSAY EXPLANATION: cytotoxicity in HMLE control line with eGFP shRNA, dose response, counter-screen for HMLE_sh_ECad selective toxicity project, cell-based, HMLE_sh_eGFP, luminescence (AID 463074)
Activity calls are given as the source filed them.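 Rule for the calls: active = AC50 no more than tenfold above the top dose tested, or full inhibition at every dose with a flat fit (cut at about 19 µM in these data); inconclusive = flat curve fit with inhibition between 30% and 70%, or poor fit; inactive = AC50 more than tenfold above the top dose tested.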
Tick one outcome: true (1) = active, false (0) = inactive

Previously resolved entries follow.
{"MOLECULE": "O=C(/C=C\\c1ccccc1)NCC(=O)N/N=C/c1ccc(O)cc1O", "CLASSIFICATION": "true (1)"}
{"MOLECULE": "CSc1ccc(C2=CC(=O)C[C@H](c3ccc(Cl)cc3)C2)cc1", "CLASSIFICATION": "true (1)"}

Identify the outcome logged in this assay for the molecule shown: `COc1ccc(C(c2c[nH]c3ccccc23)c2c[nH]c3ccccc23)cc1O`
true (1)

Param item: `CCN(CC)CCNc1ncnc2c1sc1nc(N3CCOCC3)c3c(c12)CC(C)(C)SC3`
true (1)

Param item: `Nc1ccccc1N=Cc1c(O)n(CCC2=CCCCC2)c(=O)[nH]c1=O`
false (0)

Param item: `C(=C\c1nc(N2CCCCCC2)c2ccccc2n1)/c1ccccc1`
true (1)

Param item: `Cc1ccc(S(=O)(=O)Nc2ccc(-c3nnc(SCc4ccccc4Cl)o3)cc2)cc1`
true (1)

Param item: COc1ccc(/C=N/OCC(=O)N2CC3(C)CC2CC(C)(C)C3)cc1 (stereo unspecified)
true (1)

Param item: `COc1cc(OC)cc(-c2nnc(SCC(=O)N(Cc3ccccc3)C(C)(C)C)o2)c1`
true (1)

Param item: Cc1cccc(-c2cc3nc(C)cc(N4CC(C)CC(C)C4)n3n2)c1 (stereo unspecified)
true (1)

###

Test system: HMLE_sh_eGFP viability, CellTiter-Glo luminescence, 72 h
ASSAY EXPLANATION: cytotoxicity in HMLE control line with eGFP shRNA, dose response, counter-screen for HMLE_sh_ECad selective toxicity project, cell-based, HMLE_sh_eGFP, luminescence (AID 463074);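 also: counterscreen control line to flag general toxicity for the HMLE_sh_ECad screen; potency for loss of viability as luminescence drops below DMSO wells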
AC50 overview

Consider the following illustrative entries.
{"CPD SMILES": "COc1cc(SC#N)ccc1N=Cc1c(C)[nH]n(-c2ccc(C)cc2)c1=O", "AC50": "5.99 µM"}
{"CPD SMILES": "Cc1cc2nc(NCCCO)n(CC(=O)c3cc(C(C)(C)C)c(O)c(C(C)(C)C)c3)c2cc1C", "AC50": "3.56 µM"}
{"CPD SMILES": "CCOC(=O)Nc1ccc2nc(Sc3ccc(Cl)cc3)sc2c1", "AC50": "2.97 µM"}
{"CPD SMILES": "C/C(N)=C(/C#N)C(=O)COC(=O)c1cc(-c2ccc(C)cc2)nc2ccccc12", "AC50": "15 µM"}
{"CPD SMILES": "COc1cc(OC)cc(-c2sc3ccc(OC)cc3c2C#CCO)c1", "AC50": "6.89 µM"}

Endpoint output: AC50 of `Cc1ccc(C(=O)Cn2nnc3c(sc4nc5c(c(-c6ccccc6)c43)CCC5)c2=O)cc1` . Value?
0.687 µM

Param item: `CCn1c(C)c(C)c2cc(C(=O)Nc3cccc(Cl)c3)ccc21`
4.05 µM

Param item: `CCCCCCSc1ccc(-c2nc3cnccn3c2NCCCC)cc1`
4.07 µM

Param item: `Cc1cc(-c2ccccc2)n(-c2cc(N/N=C/c3ccccc3O)ncn2)n1`
0.669 µM

Param item: `O=c1cc(CNc2cc(C(F)(F)F)cc(C(F)(F)F)c2)nc2sccn12`
3.39 µM

###

Tested on: HMLE_sh_eGFP viability, CellTiter-Glo luminescence, 72 h
ASSAY EXPLANATION: cytotoxicity in HMLE control line with eGFP shRNA, dose response, counter-screen for HMLE_sh_ECad selective toxicity project, cell-based, HMLE_sh_eGFP, luminescence (AID 463074);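 also: counterscreen control line to flag general toxicity for the HMLE_sh_ECad screen; potency for loss of viability as luminescence drops below DMSO wells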
Activity calls are given as the source filed them.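 The calls were made as follows: active = AC50 no more than tenfold above the top dose tested, or full inhibition at every dose with a flat fit (cut at about 19 µM in these data); inconclusive = flat curve fit with inhibition between 30% and 70%, or poor fit; inactive = AC50 more than tenfold above the top dose tested.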
Tick one outcome: 1.0 for active, 0.0 for inactive

Previously resolved entries follow.
{"COMPOUND": "CC(=NCc1cccc(Cl)c1)c1nc(-c2ccco2)oc1O", "CLASSIFICATION": 1.0}
{"COMPOUND": "Cn1nnnc1Sc1ncnc2scc(-c3cccc(Br)c3)c12", "CLASSIFICATION": 1.0}
{"COMPOUND": "O/N=C(\\c1ccc(Cl)cc1Cl)c1ncc(C(F)(F)F)cc1Cl", "CLASSIFICATION": 1.0}
{"COMPOUND": "CC(NC(=O)c1ccc(N2CCNCC2)c([N+](=O)[O-])c1)C12CC3CC(CC(C3)C1)C2 (stereo unspecified)", "CLASSIFICATION": 1.0}
{"COMPOUND": "O=C(/C=C/c1ccncc1)c1ccc(NC(=O)c2ccccc2F)cc1", "CLASSIFICATION": 1.0}

Identify the outcome logged in this assay for the compound shown: `CCCCCCSc1cccc(-c2nc3ccccn3c2NCc2ccccc2)c1`
1.0

Param item: `Cc1csc(NC(=S)Nc2cccc(Cl)c2)n1`
1.0

Param item: Cc1ccc(/C=C/C(=O)NCC2COc3ccccc3O2)o1 (stereo unspecified)
0.0

Param item: `COc1ccc2nc(C)cc(N/N=C/c3ccccc3)c2c1`
1.0

Param item: `O=C(/C=C/c1ccc(Cl)c([N+](=O)[O-])c1)Nc1cccc(NC(=O)c2ccco2)c1`
1.0

Param item: `C[C@@H](CSc1ccc(Br)cc1)CN1CC[C@H](NC(=O)OCc2ccccc2)CCC1=O`
1.0

###

AC50 overview
Test system: HMLE_sh_eGFP viability, CellTiter-Glo luminescence, 72 h
ASSAY EXPLANATION: cytotoxicity in HMLE control line with eGFP shRNA, dose response, counter-screen for HMLE_sh_ECad selective toxicity project, cell-based, HMLE_sh_eGFP, luminescence (AID 463074);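 also: counterscreen control line to flag general toxicity for the HMLE_sh_ECad screen; potency for loss of viability as luminescence drops below DMSO wells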

Can you look up AC50 on HMLE_sh_eGFP viability, CellTiter-Glo luminescence, 72 h for `Cc1ccc(-c2cc([C@H]3[C@@H]4C=CCC[C@@]4(C)C(=O)N3Cc3ccccc3)ccc2F)cc1` ?
5.2 µM

Param item: `Oc1ccc(-c2csc(Nc3ccccn3)n2)c(O)c1`
3.93 µM

Param item: CN1CCN(C2Cc3ccccc3Sc3cc(C(F)(F)F)ccc32)CC1 (stereo not given)
6.9 µM

Param item: `Cc1ccccc1N1CCN(C(=O)c2ccc(Oc3ccc(C(F)(F)F)cn3)cc2)CC1`
4.66 µM

Param item: `CC(C)(C)N(Cc1ccccc1)C(=O)c1cc2ccccc2o1`
0.653 µM

Param item: `O=c1[nH]c(=O)n(CCC2=CCCCC2)c(O)c1/C=N/Nc1ccccc1`
3.76 µM

Param item: `CC(C)Cn1c(O)c(N=NC(=O)c2cccc(S(=O)(=O)N3CCCCC3)c2)c2ccccc21`
1.57 µM

Param item: CC(C)(C)c1cc(CSC(=S)NC2CCS(=O)(=O)C2)c(Br)c(C(C)(C)C)c1 (stereo not given)
3.8 µM
